Test system: Human immunodeficiency virus 1
Test: Antiviral activity against HIV-1 harboring RT L100I mutant infected in human MT4 cells assessed as protection against virus-induced cytopathic effect incubated for 5 days by MTT assay
Assay type: functional, organism-based
Conditions: Human immunodeficiency virus 1, MT4, 120 h
pEC50: −log10 of the molar value.
Class t: pEC50 at least 7. Class f: pEC50 below 7.

CCOC(=O)c1cnc(NC2CCN(Cc3ccc(F)cc3)CC2)nc1Oc1c(C)cc(-c2ccc(C#N)cc2)cc1C ... f
O=C1Nc2ccc(Cl)cc2[C@@](C#CC2CC2)(C(F)(F)F)O1 ... t
CCOC(=O)c1cnc(NC2CCN(Cc3cccnc3)CC2)nc1Oc1c(C)cc(-c2ccc(C#N)cc2)cc1C ... f
CCOC(=O)c1cnc(NC2CCN(Cc3ccc(S(N)(=O)=O)cc3)CC2)nc1Oc1c(C)cc(-c2ccc(C#N)cc2)cc1C ... f
Cc1cn([C@H]2C[C@H](N=[N+]=[N-])[C@@H](CO)O2)c(=O)[nH]c1=O ... t
CCOC(=O)c1cnc(NC2CCN(Cc3ccc(S(C)(=O)=O)cc3)CC2)nc1Oc1c(C)cc(-c2ccc(C#N)cc2)cc1C ... t
CCOC(=O)c1cnc(NC2CCN(Cc3ccc(C(N)=O)cc3)CC2)nc1Oc1c(C)cc(-c2ccc(C#N)cc2)cc1C ... t
CCOC(=O)c1cnc(NC2CCN(Cc3ccc(C(=O)NC)cc3)CC2)nc1Oc1c(C)cc(-c2ccc(C#N)cc2)cc1C ... t

Please check the record CCOC(=O)c1cnc(NC2CCN(Cc3cccc(C#N)c3)CC2)nc1Oc1c(C)cc(-c2ccc(C#N)cc2)cc1C and state if its pEC50 is at or above 7.
f

Check the entry CCOC(=O)c1cnc(NC2CCN(Cc3ccc(S(=O)(=O)NC)cc3)CC2)nc1Oc1c(C)cc(-c2ccc(C#N)cc2)cc1C : does pEC50 equal or exceed 7?
t

Is pEC50 at least 7? Consider Cc1ccnc2c1NC(=O)c1cccnc1N2C1CC1
f
